Please respond with reported IC50 for every item in the list.
Target: Glucosylceramide synthase (GCS) (Canis lupus familiaris, UniProt A0A8I3MXG6)
Construct: The MDCK, K-562, and L6 cell lines all endogenously express GCS enzyme
Sequence (A0A8I3MXG6 1-394): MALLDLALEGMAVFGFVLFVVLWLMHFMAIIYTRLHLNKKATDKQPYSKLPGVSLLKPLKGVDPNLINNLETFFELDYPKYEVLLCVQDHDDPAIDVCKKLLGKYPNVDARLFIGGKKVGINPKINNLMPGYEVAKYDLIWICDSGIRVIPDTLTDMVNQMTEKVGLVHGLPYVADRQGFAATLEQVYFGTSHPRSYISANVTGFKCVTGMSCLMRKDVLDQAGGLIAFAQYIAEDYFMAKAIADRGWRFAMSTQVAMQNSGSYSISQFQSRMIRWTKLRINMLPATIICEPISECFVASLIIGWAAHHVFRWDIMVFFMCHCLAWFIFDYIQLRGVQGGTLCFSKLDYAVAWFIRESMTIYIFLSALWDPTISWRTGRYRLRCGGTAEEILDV
Assay: GCS enzymatic assay with MDCK cell lysate
Details: MDCK cell lysate as source of GCS; C6-NBD-glucosylceramide by LC-MS/MS
Numbers only, in µM.

O=C(N[C@H](CN1CCCC1)[C@H](O)c1ccc(OC2CC2)c(Cl)c1)/C(=N/O)c1ccc2cc(Cl)ccc2c1 [Crystalline Form A of Compound 1]
0.00766

Moving on to the next compound.
[in] State, in one line, measured IC50 of CCCCCCCC(=O)N[C@H](CN1CCCC1)[C@H](O)c1ccc2c(c1)OCCO2 [Eliglustat, reference compound]
[out] 0.0522
